- TEST TARGET: IRAK4 enzyme (Homo sapiens (Human), UniProt Q9NWZ3)
- Sequence (Q9NWZ3 whole entry): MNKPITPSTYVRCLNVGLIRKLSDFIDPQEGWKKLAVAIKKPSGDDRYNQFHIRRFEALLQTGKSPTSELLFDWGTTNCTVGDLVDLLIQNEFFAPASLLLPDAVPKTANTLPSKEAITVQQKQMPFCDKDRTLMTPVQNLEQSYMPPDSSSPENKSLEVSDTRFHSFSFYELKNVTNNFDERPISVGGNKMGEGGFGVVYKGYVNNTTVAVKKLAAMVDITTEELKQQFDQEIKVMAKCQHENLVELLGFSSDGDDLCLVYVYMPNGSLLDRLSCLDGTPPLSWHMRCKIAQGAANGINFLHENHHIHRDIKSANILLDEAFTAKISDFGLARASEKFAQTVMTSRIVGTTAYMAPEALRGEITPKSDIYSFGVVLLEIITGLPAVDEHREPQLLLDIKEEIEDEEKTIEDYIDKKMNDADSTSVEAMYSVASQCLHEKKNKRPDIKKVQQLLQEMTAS
- TEST PROTOCOL: biochemical
- Format: biochemical
- CONDITIONS USED: IRAK4 enzyme, TR-FRET, 500 μM ATP
READOUT TYPE: pIC50
Give bare numbers, as −log10 of the molar value.

Below, each entry is followed by its recorded pIC50 result.
COC1CN(C(=O)C23CCC(Nc4cc(-c5ccc6cc(C#N)cnn56)ncc4C(=O)NC[C@@H](F)C(C)(C)O)(CC2)CC3)C1 [Example 396] ... 9.00
CN(C)C(=O)N1CCC(Nc2cc(-c3ccc4cc(C#N)cnn34)ncc2C(=O)NC[C@@H](F)C(C)(C)O)CC1 [Example 243] ... 8.70
CC(C)(O)[C@H](F)CNC(=O)c1cnc(-c2ccc3cc(C#N)cnn23)cc1NC12CCC(NC(=O)OC3COC3)(CC1)CC2 [Example 279] ... 8.70
N#Cc1ccc(NC(=O)c2cnc(-c3ccc4cc(C#N)cnn34)cc2N[C@H]2CCC[C@@H](O)C2)nc1 [Example 386] ... 8.10

Proceed to the following item.
Ask | Which pIC50 value belongs to CC(C)(O)[C@H](F)CNC(=O)c1cnc(-c2ccc3cc(C#N)cnn23)cc1NC1CC2CCC(C1)O2 (stereo partly shown) [Example 50] ?
Reply | 8.52

====

I'd be grateful if you could share measured EC50 for these entries.
- Test system: TNFα
- TEST PROTOCOL: cells
- Type: cell-based, human
- CONDITIONS USED: Homo sapiens, Monocyte, LPS-stimulated human monocytes, TNFα by TR-FRET; read-out: EC50 TNF
One number for each entry, in nM.

Below, each entry is followed by its recorded EC50 result.
CC(C)(O)[C@H](F)CNC(=O)c1cnc(-c2ccc3cc(C#N)cnn23)cc1Nc1cnn([C@@H]2CNC[C@H]2F)c1 [Example 882] ... 22
CC(C)(O)C(=O)CNC(=O)c1cnc(-c2ccc3cc(C#N)cnn23)cc1NC12CCC(O)(CC1)CC2 [Example 810] ... 9

Please look at the items below and tell me EC50 for each one, in order.
1. CC(C)C(=O)NC[C@H]1C[C@H](Nc2cc(-c3ccc4cc(C#N)cnn34)ncc2C(=O)NC[C@@H](F)C(C)(C)O)C1 [Example 938]
2. Cn1ccc(CNC(=O)c2cnc(-c3ccc4cc(C#N)cnn34)cc2NC23CCC(O)(CC2)CC3)n1 [Example 935]
3. CC(C)(O)[C@H](F)CNC(=O)c1cnc(-c2ccc3cc(C#N)cnn23)cc1Nc1ccc2nncn2c1 [Example 973]
4. COC(=O)N1CCC2(CC(Nc3cc(-c4ccc5cc(C#N)cnn45)ncc3C(=O)NC[C@@H](F)C(C)(C)O)C2)C1 (some centres unmarked) [Example 903]
5. CC1(NC(=O)c2cnc(-c3ccc4cc(C#N)cnn34)cc2NC23CCC(O)(CC2)CC3)CC1 [Example 950]
6. CN1CCN(C(=O)C23CCC(Nc4cc(-c5ccc6cc(C#N)cnn56)ncc4C(=O)NC[C@@H](F)C(C)(C)O)(CC2)CC3)CC1 [Example 802]
7. N#Cc1cnn2c(-c3cc(NC45CCC(O)(CC4)CC5)c(C(=O)NCC(F)(F)C(=O)N4CC(F)(F)C4)cn3)ccc2c1 [Example 961]
8. N#Cc1cnn2c(-c3cc(NC45CCC(O)(CC4)CC5)c(C(=O)N[C@@H]4CCNC4=O)cn3)ccc2c1 [Example 959]

Reply |
[68, 153, 1910, 79, 70, 157, 382, 206]

Please look at the items below and tell me EC50 for each one, in order.
1. CC(C)(O)[C@H](F)CNC(=O)c1cnc(-c2ccc3cc(C#N)cnn23)cc1Nc1ccc(-c2cnoc2)nc1 [Example 967]
2. CC(C)(O)[C@H](F)CNC(=O)c1cnc(-c2ccc3cc(C#N)cnn23)cc1Nc1ccc(CNCC(F)F)cc1 [Example 872]
3. CCCOc1cncc(Nc2cc(-c3ccc4cc(C#N)cnn34)ncc2C(=O)NC[C@@H](F)C(C)(C)O)c1 [Example 849]
4. CC(C)Oc1cccc(Nc2cc(-c3ccc4cc(C#N)cnn34)ncc2C(=O)NC[C@@H](F)C(C)(C)O)c1 [Example 837]

Reply |
156
14
11
117

====

- System: TNFα
- TEST PROTOCOL: cells
- Type: cell-based, human
- CONDITIONS USED: Homo sapiens, Monocyte, LPS-stimulated human monocytes, TNFα content; read-out: EC50 TNF
READOUT TYPE: EC50 (nM)
Answers are plain numbers, in nM.

Below, each entry is followed by its recorded EC50 result.
CNC(=O)O[C@H]1C[C@@H](Nc2cc(-c3ccc4cc(C#N)cnn34)ncc2C(=O)NC[C@@H](F)C(C)(C)O)C1 ... 120
Cc1ncoc1-c1ccc(Nc2cc(-c3ccc4cc(C#N)cnn34)ncc2C(=O)NC[C@@H](F)C(C)(C)O)cc1 ... 22
CC(C)(O)[C@H](F)CNC(=O)c1cnc(-c2ccc3cc(C#N)cnn23)cc1N[C@H]1CCCN(S(C)(=O)=O)C1 ... 129

Please look at the items below and tell me EC50 for each one, in order.
1. CC(C)(O)[C@H](F)CNC(=O)c1cnc(-c2ccc3cc(C#N)cnn23)cc1N[C@H]1C[C@@](C)(O)C1
2. CC(C)Nc1cc(-c2ccc3cc(C(N)=O)cnn23)ncc1C(=O)NC1CS(=O)(=O)C1
3. CC(C)(O)[C@H](F)CNC(=O)c1cnc(-c2ccc3cc(C#N)cnn23)cc1Nc1cnn(C2COC2)c1

Reply |
[44, 1620, 30]

Please look at the items below and tell me EC50 for each one, in order.
1. CC(C)(O)[C@H](F)CNC(=O)c1cnc(-c2ccc3cc(C#N)cnn23)cc1Nc1cnn([C@H]2CCN(C3COC3)C2)c1
2. CNC(=O)c1cnc(-c2ccc3cc(C#N)cnn23)cc1N[C@H]1CC[C@H](NC(C)=O)CC1
3. CC(C)(O)[C@H](F)CNC(=O)c1cnc(-c2ccc3cc(C#N)cnn23)cc1Nc1ccc(-c2ncco2)cc1
4. CC(C)(O)[C@H](F)CNC(=O)c1cnc(-c2ccc3cc(C#N)cnn23)cc1NC1(CO)CC1
5. CC(C)Nc1cc(-c2ccc3cc(C#N)cnn23)ncc1C(=O)NC1CC2(CC(O)C2)C1 (centres unmarked)
6. CC(C)(O)[C@H](F)CNC(=O)c1cnc(-c2ccc3cc(C#N)cnn23)cc1Nc1ccc(OC(F)F)nc1
7. CC(C)(O)[C@H](F)CNC(=O)c1cnc(-c2ccc3cc(C#N)cnn23)cc1Nc1nc(Cc2ccccc2)cs1

Reply |
82
146
114
159
148
106
73

Please look at the items below and tell me EC50 for each one, in order.
1. CC(C)(O)[C@H](F)CNC(=O)c1cnc(-c2ccc3cc(C#N)cnn23)cc1NC1CCC(C(=O)N2CC(F)(F)C2)CC1 (some centres unmarked)
2. CC(C)(O)[C@H](F)CNC(=O)c1cnc(-c2ccc3cc(C#N)cnn23)cc1Nc1cnn2c1CCCC2
3. N#Cc1cnn2c(-c3cc(NC45CCC(O)(CC4)CC5)c(C(=O)NCC4CCO4)cn3)ccc2c1 (centres unmarked)
4. CNC(=O)c1cnc(-c2ccc3cc(C#N)cnn23)cc1N[C@@H]1CC[C@H](C(=O)NC)C1
5. CC(=O)OC12CCC(Nc3cc(-c4ccc5cc(C#N)cnn45)ncc3C(=O)NC[C@@H](F)C(C)(C)O)(CC1)CC2

Reply |
[92, 377, 144, 1100, 36]

Please look at the items below and tell me EC50 for each one, in order.
1. CC(C)Nc1cc(-c2ccc3cc(C#N)cnn23)ncc1C(=O)NC1CCOCC1
2. CC(C)Nc1cc(-c2ccc3cc(C#N)cnn23)ncc1C(=O)NC1CCN(C2COC2)CC1
3. CC(C)(O)[C@H](F)CNC(=O)c1cnc(-c2ccc3cc(C#N)cnn23)cc1Nc1ccc(-c2cnco2)cc1
4. CC(C)(O)[C@H](F)CNC(=O)c1cnc(-c2ccc3cc(C#N)cnn23)cc1NC1COC1
5. CN1CCC(Nc2cc(-c3ccc4cc(C#N)cnn34)ncc2C(=O)NC[C@@H](F)C(C)(C)O)CC1
6. CN(C)c1ncc(Nc2cc(-c3ccc4cc(C#N)cnn34)ncc2C(=O)NC[C@@H](F)C(C)(C)O)cn1

Reply |
1. 152
2. 321
3. 32
4. 26
5. 177
6. 4

Please look at the items below and tell me EC50 for each one, in order.
1. Cc1ncoc1-c1ccc(Nc2cc(-c3ccc4cc(C#N)cnn34)ncc2C(=O)NC[C@@H](F)C(C)(C)O)cn1
2. Cn1ccc(Nc2cc(-c3ccc4cc(C#N)cnn34)ncc2C(=O)NC[C@@H](F)C(C)(C)O)cc1=O
3. CC(C)(O)[C@H](F)CNC(=O)c1cnc(-c2ccc3cc(C#N)cnn23)cc1N[C@@H]1C[C@@H]2CN(S(C)(=O)=O)C[C@@H]2C1
4. CC(C)(O)[C@H](F)CNC(=O)c1cnc(-c2ccc3cc(C#N)cnn23)cc1Nc1ccnnc1

Reply |
28
104
262
657
